TESTED ON: human PD-1 expressed on cells (human, UniProt Q15116 25-288)
Sequence (Q15116 25-288): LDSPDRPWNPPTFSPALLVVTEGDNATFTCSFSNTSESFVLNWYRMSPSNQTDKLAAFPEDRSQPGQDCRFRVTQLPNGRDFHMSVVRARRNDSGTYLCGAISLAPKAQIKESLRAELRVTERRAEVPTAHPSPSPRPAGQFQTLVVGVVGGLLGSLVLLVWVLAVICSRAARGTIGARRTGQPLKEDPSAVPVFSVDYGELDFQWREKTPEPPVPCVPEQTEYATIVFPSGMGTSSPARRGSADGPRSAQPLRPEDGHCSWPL
TEST METHOD NOTES: cell-based or functional assay
1 (yes) if EC50, Promega blockade bioassay is below 0.2 µg/mL. 0 (no) if not; exact matches included in 0 (no).

1) 33C4 (antibody, V domains shown, also called 780_39) VH: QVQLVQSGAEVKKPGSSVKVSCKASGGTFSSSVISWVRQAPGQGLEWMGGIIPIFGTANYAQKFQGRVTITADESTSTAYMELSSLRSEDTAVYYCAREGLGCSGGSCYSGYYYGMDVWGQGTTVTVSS VL: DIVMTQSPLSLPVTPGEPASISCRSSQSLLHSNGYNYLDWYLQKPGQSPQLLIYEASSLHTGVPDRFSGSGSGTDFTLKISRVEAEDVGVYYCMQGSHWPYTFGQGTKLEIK | 1 (yes)
2) 31B1 (antibody, V domains shown, also called 780_38; 33B1 and 31B2 (apparent misprints)) VH: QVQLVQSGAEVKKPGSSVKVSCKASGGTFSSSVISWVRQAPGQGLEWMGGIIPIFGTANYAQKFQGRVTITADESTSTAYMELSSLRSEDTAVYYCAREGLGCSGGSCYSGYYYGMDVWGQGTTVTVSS VL: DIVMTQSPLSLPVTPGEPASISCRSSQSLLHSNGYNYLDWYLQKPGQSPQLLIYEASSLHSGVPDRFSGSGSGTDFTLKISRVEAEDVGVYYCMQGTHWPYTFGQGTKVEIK | 1 (yes)
3) 38B2 (antibody, V domains shown, 24H9 derivative, IgG; also called 780_54; hPD1 Ab (38B2)) VH: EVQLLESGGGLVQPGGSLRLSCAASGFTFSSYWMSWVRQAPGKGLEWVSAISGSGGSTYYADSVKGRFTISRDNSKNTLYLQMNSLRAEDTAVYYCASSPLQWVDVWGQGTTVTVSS VL: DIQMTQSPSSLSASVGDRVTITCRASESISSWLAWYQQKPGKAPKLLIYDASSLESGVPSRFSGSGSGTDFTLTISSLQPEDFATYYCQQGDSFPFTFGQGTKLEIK | 1 (yes)
4) 24H9 (antibody, human IgG1, V domains shown) VH: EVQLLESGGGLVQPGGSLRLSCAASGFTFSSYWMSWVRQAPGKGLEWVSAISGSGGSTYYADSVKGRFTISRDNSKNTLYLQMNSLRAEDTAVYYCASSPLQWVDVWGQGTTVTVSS VL: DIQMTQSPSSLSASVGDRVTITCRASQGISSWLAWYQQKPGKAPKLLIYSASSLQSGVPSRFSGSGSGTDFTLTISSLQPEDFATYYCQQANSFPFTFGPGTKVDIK | 0 (no)
5) 38A6 (antibody, V domains shown, also called 780_46) VH: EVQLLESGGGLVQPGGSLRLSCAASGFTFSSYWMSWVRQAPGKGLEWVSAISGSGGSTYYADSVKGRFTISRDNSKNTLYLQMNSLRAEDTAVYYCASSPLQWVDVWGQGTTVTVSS VL: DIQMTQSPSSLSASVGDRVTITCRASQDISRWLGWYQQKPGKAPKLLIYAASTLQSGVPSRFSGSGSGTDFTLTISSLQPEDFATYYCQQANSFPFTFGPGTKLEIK | 1 (yes)
